Target: Metabotropic glutamate receptor 5 (Homo sapiens, UniProt P41594)
Sequence (P41594 whole entry): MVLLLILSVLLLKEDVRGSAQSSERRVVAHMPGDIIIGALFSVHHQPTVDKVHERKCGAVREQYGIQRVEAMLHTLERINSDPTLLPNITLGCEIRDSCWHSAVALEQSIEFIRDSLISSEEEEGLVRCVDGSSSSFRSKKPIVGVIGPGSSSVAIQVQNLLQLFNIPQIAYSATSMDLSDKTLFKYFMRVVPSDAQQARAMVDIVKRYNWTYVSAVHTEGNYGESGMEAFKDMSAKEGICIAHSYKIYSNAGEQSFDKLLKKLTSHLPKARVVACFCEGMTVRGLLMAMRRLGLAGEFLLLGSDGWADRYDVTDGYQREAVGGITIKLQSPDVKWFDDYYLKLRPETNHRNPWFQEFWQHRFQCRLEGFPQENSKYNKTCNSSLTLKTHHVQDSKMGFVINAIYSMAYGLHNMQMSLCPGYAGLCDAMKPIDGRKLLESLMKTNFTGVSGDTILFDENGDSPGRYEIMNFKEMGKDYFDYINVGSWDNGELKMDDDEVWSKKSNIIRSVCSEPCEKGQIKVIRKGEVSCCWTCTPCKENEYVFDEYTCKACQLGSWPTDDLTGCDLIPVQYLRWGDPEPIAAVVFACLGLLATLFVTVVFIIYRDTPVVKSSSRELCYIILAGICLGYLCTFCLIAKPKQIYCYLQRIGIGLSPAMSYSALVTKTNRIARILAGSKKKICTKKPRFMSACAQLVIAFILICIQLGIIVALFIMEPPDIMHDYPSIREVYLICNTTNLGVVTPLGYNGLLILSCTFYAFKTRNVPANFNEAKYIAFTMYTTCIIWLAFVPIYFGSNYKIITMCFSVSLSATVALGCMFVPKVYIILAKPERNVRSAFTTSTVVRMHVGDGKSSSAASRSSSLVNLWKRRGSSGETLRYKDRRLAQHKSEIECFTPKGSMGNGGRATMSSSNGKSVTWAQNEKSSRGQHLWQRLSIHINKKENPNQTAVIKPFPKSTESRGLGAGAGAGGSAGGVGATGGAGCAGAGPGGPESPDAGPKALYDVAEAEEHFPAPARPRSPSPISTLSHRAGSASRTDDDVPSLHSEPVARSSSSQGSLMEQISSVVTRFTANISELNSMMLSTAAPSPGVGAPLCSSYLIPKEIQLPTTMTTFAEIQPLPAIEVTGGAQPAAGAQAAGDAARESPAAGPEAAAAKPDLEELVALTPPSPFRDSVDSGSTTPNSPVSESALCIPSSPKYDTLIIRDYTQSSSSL
Test: Displacement of [3H]-MPEPy from human mGluR5A transfected in HEK293 cell membranes after 60 mins by microbeta liquid scintillation counting analysis
Measurement Type: Ki (nM)
One number for each entry, in nM.

For orientation, consider the following solved cases.
O=C1N[C@H](c2cncc(C#Cc3ccccc3)c2)[C@@H](c2ccc(F)cc2)O1 :: 1.7
O=C1N[C@H](c2cccc(C#Cc3ccccc3)n2)[C@@H](c2ccccc2)O1 :: 44

Your task in this section: give Ki for each listed record.
1. O=C1N[C@H](c2cncc(C#Cc3cccnc3)c2)[C@@H](c2ccc(F)cc2)O1
2. O=C1N[C@H](c2cncc(C#Cc3ccccc3)c2)[C@@H](c2ccc(F)cc2F)O1
3. O=C1N[C@H](c2cncc(C#Cc3ccccc3)c2)[C@@H](c2ccccc2)O1

A:
1: 32; 2: 1.4; 3: 1.4

---

Experiment: Metabolic stability in mouse liver microsomes assessed as compound remaining after 10 mins
Format: ADME, Microsome
Conditions: read-out: Stability
Measurement Type: remaining at 10 min (%)
Give bare numbers, in %.

O=C1N[C@H](c2cncc(C#Cc3ccncc3)c2)[C@@H](c2ccc(F)cc2)O1 :: 69
O=C1N[C@H](c2cncc(C#Cc3cccnc3)c2)[C@@H](c2ccc(F)cc2)O1 :: 87

Please state, for each entry, its recorded remaining at 10 min.
1. O=C1N[C@H](c2cncc(C#Cc3ncccc3F)c2)[C@@H](c2ccc(F)cc2)O1
2. O=C1N[C@H](c2cncc(C#Cc3ccccn3)c2)[C@@H](c2ccc(F)cc2)O1

A:
1: 100; 2: 89

For every record below, what is its remaining at 10 min?
1. O=C1N[C@H](c2cncc(C#Cc3ccccc3)c2)[C@@H](c2ccc(F)cc2)O1
2. O=C1N[C@H](c2cncc(C#Cc3cncc(F)c3)c2)[C@@H](c2ccc(F)cc2)O1

A:
1: 80; 2: 77

---

Target: Metabotropic glutamate receptor 5 (Homo sapiens, UniProt P41594)
Assay: Displacement of [3H]-MPEPy from human mGluR5A transfected in HEK293 cell membranes after 60 mins by microbeta liquid scintillation counting analysis
Exam item: assign fulfilled to entries whose Ki is below 3 nM and not fulfilled to entries at or above 3 nM. Note that a value of exactly 3 nM receives not fulfilled.

Solved cases (5 shown):
O=C1N[C@H](c2cncc(C#Cc3ccccc3)c2)[C@@H](c2ccccc2F)O1 :: fulfilled
O=C1N[C@H](c2cncc(C#Cc3ccccc3)c2)[C@@H](c2cccc(Cl)c2)O1 :: fulfilled
O=C1N[C@H](c2cncc(C#Cc3ccccc3)c2)[C@@H](c2c(F)cccc2F)O1 :: fulfilled
O=C1N[C@H](c2cncc(C#Cc3ccccc3)c2)[C@@H](c2ccc(F)c(F)c2)O1 :: fulfilled
O=C1N[C@H](c2cncc(C#Cc3ccccn3)c2)[C@@H](c2ccc(F)cc2)O1 :: not fulfilled

Q: In plain terms, does `O=C1N[C@H](c2ccnc(C#Cc3ccccc3)c2)[C@@H](c2ccccc2)O1` come in under 3 nM for Ki?
A: fulfilled

Q: Determine whether this molecule shows Ki lower than 3 nM (ties excluded): `O=C1N[C@H](c2cncc(C#Cc3ccncc3)c2)[C@@H](c2ccc(F)cc2)O1`
A: not fulfilled

---

Assay: Metabolic stability in rat liver microsomes assessed as compound remaining after 10 mins
Type: ADME, Microsome
Conditions: read-out: Stability
For each entry below, report its remaining at 10 min value.
Could you write the number and then its unit?

O=C1N[C@H](c2cncc(C#Cc3ccccc3)c2)[C@@H](c2ccc(F)cc2)O1 :: 92%
O=C1N[C@H](c2cncc(C#Cc3ccccn3)c2)[C@@H](c2ccc(F)cc2)O1 :: 100%
O=C1N[C@H](c2cncc(C#Cc3cccnc3)c2)[C@@H](c2ccc(F)cc2)O1 :: 85%

Quick batch: remaining at 10 min for everything below.
1. O=C1N[C@H](c2cncc(C#Cc3ncccc3F)c2)[C@@H](c2ccc(F)cc2)O1
2. O=C1N[C@H](c2cncc(C#Cc3cncc(F)c3)c2)[C@@H](c2ccc(F)cc2)O1
3. O=C1N[C@H](c2cncc(C#Cc3ccnc(F)c3)c2)[C@@H](c2ccc(F)cc2)O1
4. O=C1N[C@H](c2cncc(C#Cc3ccncc3)c2)[C@@H](c2ccc(F)cc2)O1

A:
1. 100%
2. 85%
3. 100%
4. 65%

---

Molecular target: Metabotropic glutamate receptor 5 (Homo sapiens)
Experiment: Positive allosteric modulation of human mGluR5A transfected in HEK293 cells assessed as potentiation of L-glutamate-induced calcium release incubated for 10 mins by FLIPR assay
Assay type: functional, cell-based
pEC50: −log10 of the molar value.
pEC50 vs 8: at or above is 1 (yes), below is 0 (no).

Reference set (3 entries):
O=C1N[C@H](c2cncc(C#Cc3ccccc3)c2)[C@@H](c2ccc(F)c(F)c2)O1 :: 1 (yes)
O=C1N[C@H](c2cncc(C#Cc3ccccc3)c2)[C@@H](c2ccc(Cl)cc2)O1 :: 1 (yes)
O=C1N[C@H](c2cncc(C#Cc3ccccc3)c2)[C@@H](c2ccccc2)O1 :: 1 (yes)

Q: Quick check, pEC50 >= 8? `O=C1N[C@H](c2cncc(C#Cc3cccnc3)c2)[C@@H](c2ccc(F)cc2)O1`
A: 1 (yes)

Q: Could you tell me if the measured pEC50 of `O=C1N[C@H](c2cccc(C#Cc3ccccc3)c2)[C@@H](c2ccccc2)O1` reaches 8 or more?
A: 0 (no)

Q: Is the recorded value of pEC50 equal to or greater than 8 for this molecule? `O=C1N[C@H](c2cncc(C#Cc3ccccc3)c2)[C@@H](c2cc(F)cc(F)c2)O1`
A: 1 (yes)

Q: Please indicate if the recorded pEC50 for `O=C1N[C@H](c2cncc(C#Cc3ccccc3)c2)[C@@H](c2ccc(F)cc2F)O1` meets or exceeds 8.
A: 1 (yes)

Q: Quick check, pEC50 >= 8? `O=C1N[C@H](c2cncc(C#Cc3ccccc3)c2)[C@@H](c2c(F)cccc2F)O1`
A: 0 (no)

Q: Reported pEC50 at or above 8? `O=C1N[C@H](c2cncc(C#Cc3ccccc3)c2)[C@@H](c2ccccc2F)O1`
A: 1 (yes)

Q: Given the entry `O=C1N[C@H](c2cncc(C#Cc3ccccc3)c2)[C@@H](c2cccc(F)c2F)O1` , answer whether its pEC50 meets or surpasses 8.
A: 1 (yes)

Q: # check: pEC50 of `O=C1N[C@H](c2cncc(C#Cc3ccccc3)c2)[C@@H](c2cccc(Cl)c2)O1` is greater than or equal to 8
A: 1 (yes)

---

Biological target: Metabotropic glutamate receptor 5 (Homo sapiens, UniProt P41594)
Experiment: Positive allosteric modulation of human mGluR5A transfected in HEK293 cells assessed as potentiation of L-glutamate-induced calcium release incubated for 10 mins by FLIPR assay
Format: functional, cell-based
Measurement Type: pEC50
Give bare numbers, as −log10 of the molar value.

Please give pEC50 for each item listed below.
1. O=C1N[C@H](c2cncc(C#Cc3ncccc3F)c2)[C@@H](c2ccc(F)cc2)O1
2. O=C1N[C@H](c2cccc(C#Cc3ccccc3)n2)[C@@H](c2ccccc2)O1

A:
1: 8.00; 2: 8.03

Please state, for each entry, its recorded pEC50.
1. O=C1N[C@H](c2ccnc(C#Cc3ccccc3)c2)[C@@H](c2ccccc2)O1
2. O=C1N[C@H](c2cncc(C#Cc3ccnc(F)c3)c2)[C@@H](c2ccc(F)cc2)O1
3. O=C1N[C@H](c2cncc(C#Cc3ccncc3)c2)[C@@H](c2ccc(F)cc2)O1
4. O=C1N[C@H](c2cncc(C#Cc3ccccn3)c2)[C@@H](c2ccc(F)cc2)O1
5. O=C1N[C@H](c2cncc(C#Cc3ccccc3)c2)[C@@H](c2ccc(F)cc2)O1

A:
1. 8.82
2. 8.32
3. 7.85
4. 7.60
5. 9.40
